Give measured %Inh for each item. Keep answers brief.
- Tested on: BUB1
- STATED CONDITIONS: concentration: 1 μM, replicates: in singlicate; n = 1;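 note: KINOMEscan kinase panel screen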
Give bare numbers, in %.

Recorded %Inh, per entry:
{"COMPOUND SMILES": "Cc1ccccc1Cn1ccn2c(=O)cc(N3CCOCC3)nc12", "READING": 0}
{"COMPOUND SMILES": "Cc1c(Cn2c3ccccc3n3c(=O)cc(N4CCOCC4)nc23)cccc1C(F)(F)F", "READING": 3}
{"COMPOUND SMILES": "Cl.Cl.Cl.N#Cc1ccc(CCNc2nccc(-c3cccc(CN4CCNCC4)c3)n2)cc1", "READING": 0}
{"COMPOUND SMILES": "FC(F)(F)c1ccccc1-c1cc(-c2c[nH]nc2-c2ccccn2)ccn1", "READING": 0}
{"COMPOUND SMILES": "COc1ccc(Nc2nccc(NCCNC(=O)Nc3cc(C)ccc3C)n2)cc1", "READING": 0}
{"COMPOUND SMILES": "NS(=O)(=O)c1cccc(N/C=C2\\C(=O)Nc3ccc(S(=O)(=O)Cc4c(Cl)cccc4Cl)cc32)c1", "READING": 34}
{"COMPOUND SMILES": "COc1nccc(-c2c(-c3ccc(F)cc3)ncn2CCCN2CCOCC2)n1", "READING": 0}

Now consider the entry below.
I looked up Cc1ccc(NC(=O)Nc2ccccc2)cc1-c1ccc(C(=O)Nc2ccncc2)cc1 and its %Inh for BUB1 was 0

====

- Test system: SRPK3
- STATED CONDITIONS: concentration: 1 μM, replicates: in singlicate; n = 1
For each entry below, report its %Inh value.
Give bare numbers, in %.

Known %Inh results, listed for orientation:
{"COMPOUND": "Cc1ccc(NC(=O)Nc2ccccc2F)cc1-c1ccc(C(=O)Nc2ccncc2)cc1 [GSK1398477]", "UNIT ABBREV": "%", "READING": 28}
{"COMPOUND": "NS(=O)(=O)c1cccc(N/C=C2\\C(=O)Nc3ccc(S(=O)(=O)Cc4c(Cl)cccc4Cl)cc32)c1 [GSK398099]", "UNIT ABBREV": "%", "READING": 0}
{"COMPOUND": "COc1ccc(Nc2nccc(N3CCC(NC(=O)C(C)c4ccc(Cl)cc4)C3)n2)cc1 (centres unmarked) [GSK1379735]", "UNIT ABBREV": "%", "READING": 34}
{"COMPOUND": "COc1ccc(Nc2nccc(N3CCC(NC(=O)C(C)c4ccc(Cl)cc4)CC3)n2)cc1 (centres unmarked) [GSK1379812]", "UNIT ABBREV": "%", "READING": 8}

# context switch: different compound, same %Inh
Summary for this compound, CCCCc1nn2ncccc2c1-c1ccnc(NC2CC2)n1 [GW684374] : %Inh is 0

====

- System: HIPK4
- STATED CONDITIONS: concentration: 1 μM, replicates: in singlicate; n = 1
// assign 1 if %Inh falls strictly below 2%, else -1 (ties count as -1)

Examples from the recorded data:
{"MOLECULE": "Cc1c(Cn2c3ccccc3n3c(=O)cc(N4CCOCC4)nc23)cccc1C(F)(F)F", "CAT": 1}
{"MOLECULE": "COC(=O)C(Cc1ccccc1)NC(=O)NC1CCN(c2ccnc(Nc3ccc(F)cc3)n2)C1 (stereo not drawn)", "CAT": 1}

Does this molecule meet the criterion %Inh < 2%? COc1ccc(CSc2nnc(-c3ccc4nccn4c3)o2)cc1C(F)(F)F
-1

Just wondering, is %Inh of Fc1ccc(-c2nc[nH]c2-c2ccncc2)cc1 below 2%?
1

Lab log: compare recorded %Inh with 2%; is it strictly lower for Cc1cnc(N)c(/C=C/c2cncc(C(=O)NCCc3ccc(Cl)cc3Cl)c2)c1.Cl ?
-1

I'd appreciate it if you could check whether CCc1ccc(-c2ccc3c(c2)-c2n[nH]cc2S(=O)(=O)N3C)cc1 has %Inh smaller than 2%.
-1

is_below(%Inh, 2%) for O=C(Nc1n[nH]c2nc(-c3ccco3)c(Br)cc12)C1CCN(Cc2ccccc2)C1.O=C(O)[C@H](O)[C@@H](O)C(=O)O (stereo not drawn) ?
1

Confirm or reject: %Inh of COc1ccc(Nc2nccc(N3CCC(NC(=O)C(C)c4ccc(Cl)cc4)CC3)n2)cc1 (stereo not drawn) lies strictly below 2%
1

Please state whether %Inh is below 2% for CC(=O)c1c(C)c2cnc(Nc3ccc(N4CCNCC4)cn3)nc2n(C2CCCC2)c1=O
-1

====

- Test system: AMPK-alpha1
- Construct: gene PRKAA1
- STATED CONDITIONS: concentration: 1 μM, replicates: in singlicate; n = 1
Would you kindly list %Inh for each of these compounds?
One number for each entry, in %.

Example cases with answers are listed next.
{"COMPOUND": "Nc1cccc(-c2ccc3c(N)n[nH]c3c2)n1", "%Inh [%]": 0}
{"COMPOUND": "Nc1ncnc2occ(-c3ccc4c(c3)CCN4C(=O)Cc3cc(F)ccc3F)c12", "%Inh [%]": 4}

For each of the compounds below, state %Inh.
1. CS(=O)(=O)Cc1ccc(Nc2nccc(-c3c(-c4cccc(NC(=O)C5CCCCC5)c4)nn4ncccc34)n2)cc1
2. Cc1ccc(NC(=O)Nc2ccccc2)cc1-c1ccc(C(=O)Nc2ccncc2)cc1

2
15

====

Would you mind telling me the reported %Inh of each entry?
- System: SBK1
- STATED CONDITIONS: concentration: 1 μM, replicates: in singlicate; n = 1

{"MOLECULE": "COc1ccc(-c2coc3ccc(-c4nnc(C)o4)cc23)cc1", "MEASURED PROPERTY": "%Inh", "READING": "0%"}

Provide the reported %Inh of each entry below, same order.
1. FC(F)(F)c1ccccc1-c1cc(-c2c[nH]nc2-c2ccccn2)ccn1
2. O=C(Nc1n[nH]c2cc(-c3ccsc3)ccc12)C1CC1
3. COc1ccc(CSc2nnc(-c3ccc4c(c3)CCO4)o2)cc1

13%
44%
0%

====

- System: PLK2
- STATED CONDITIONS: concentration: 1 μM, replicates: in singlicate; n = 1
Consider the following compounds; for each one, report its %Inh.
Numbers only, in %.

{"COMPOUND": "CN1c2ccc(-c3ccc(C(N)=O)cc3)cc2-c2[nH]ncc2S1(=O)=O", "TARGET DESC": "PLK2", "%Inh, %": 3}
{"COMPOUND": "Cc1ccc(NC(=O)Nc2ccc(Cl)cc2)cc1-c1ccc(C(=O)Nc2ccncc2)cc1", "TARGET DESC": "PLK2", "%Inh, %": 0}
{"COMPOUND": "O=C1NC(=O)C(c2ccc(Cl)cc2)=C1Nc1ccc(O)cc1", "TARGET DESC": "PLK2", "%Inh, %": 0}
{"COMPOUND": "COc1nccc(-c2c(-c3ccc(F)cc3)ncn2CCCN2CCOCC2)n1", "TARGET DESC": "PLK2", "%Inh, %": 0}
{"COMPOUND": "Cn1cncc1C(=O)NC1CCN(c2ccnc(Nc3ccc(F)cc3)n2)C1 (stereo not drawn)", "TARGET DESC": "PLK2", "%Inh, %": 0}

// input: 3 compounds below; output: %Inh for each
1. CNc1nc(-c2ccc3c(N)n[nH]c3c2)cc(N2C[C@@H](C(=O)Nc3ccccc3)CC[C@H]2C)n1
2. CS(=O)(=O)CCNCc1nc(-c2ccc3ncnc(Nc4ccc5c(cnn5Cc5ccccc5)c4)c3c2)cs1.Cl.Cl
3. Cc1ccc(NC(=O)Nc2ccccc2F)cc1-c1ccc(C(=O)Nc2ccncc2)cc1

1. 0
2. 0
3. 0

Look at each compound and report its %Inh.
1. COc1ccc(Nc2nccc(-c3ccc(NC(=O)c4cc5cc(F)ccc5[nH]4)cc3)n2)cc1
2. CC(=O)c1c(C)c2cnc(Nc3ccn(C)n3)nc2n(C2CCCC2)c1=O
3. NS(=O)(=O)c1cccc(N/C=C2\C(=O)Nc3ccc(S(=O)(=O)Cc4c(Cl)cccc4Cl)cc32)c1

1. 0
2. 8
3. 0

Could you report %Inh for every entry in the following list?
1. Fc1ccc(-c2nc[nH]c2-c2ccncc2)cc1
2. Cc1c(Cn2c(C)c(C)n3c(=O)cc(N4CCOCC4)nc23)cccc1C(F)(F)F
3. CNc1cc(-c2ccc3c(N)n[nH]c3c2)nc(N)n1

1. 21
2. 100
3. 0

Please state, for each entry, its recorded %Inh.
1. COC(=O)c1cccc(NC(=O)NC2CCN(c3ccnc(Nc4ccc(F)cc4)n3)C2)c1 (stereo not drawn)
2. Cn1cncc1-c1cc2c(Nc3ccc(OCc4ccccc4)cc3)ncnc2cn1
3. CCn1c(-c2ccccc2)nc2cnccc21
4. COc1ccc(CSc2nnc(-c3ccc4c(c3)CCO4)o2)cc1

[0, 0, 0, 0]

====

- System: CHEK2
- STATED CONDITIONS: concentration: 1 μM, replicates: in singlicate; n = 1
MEASURED PROPERTY: %Inh
Please append the unit to your numeric answer.

Some molecules with recorded %Inh:
{"MOLECULE": "COc1ccc(Nc2nccc(N3CCC(NC(=O)C(C)c4ccc(Cl)cc4)CC3)n2)cc1 (stereo not shown) [GSK1379812]", "READING": "0%"}
{"MOLECULE": "O=c1cc(N2CCOCC2)nc2n(Cc3ccccc3F)ccn12 [GSK2297428]", "READING": "0%"}
{"MOLECULE": "COc1ccc(CSc2nnc(-c3ccc4ncsc4c3)o2)cc1C(F)(F)F", "READING": "17%"}
{"MOLECULE": "Cl.Cl.Cl.N#Cc1ccc(CCNc2nccc(-c3cccc(CN4CCNCC4)c3)n2)cc1 [GSK2137462]", "READING": "0%"}
{"MOLECULE": "O=c1cc(N2CCOCC2)nc2n(Cc3cccc(Cl)c3Cl)c3ccccc3n12 [GSK2299009]", "READING": "0%"}
{"MOLECULE": "COc1ccc(CSc2nnc(-c3ccc4c(c3)CCO4)o2)cc1", "READING": "0%"}
{"MOLECULE": "Cc1nccc(-c2c(-c3ccc(F)cc3)ncn2CCCN2CCOCC2)n1.Cl [SB-282975]", "READING": "14%"}
{"MOLECULE": "Cc1cnc(N)c(/C=C/c2cncc(C(=O)NCCc3ccc(Cl)cc3Cl)c2)c1.Cl [GSK190937]", "READING": "26%"}

Provide each entry's %Inh from the list below.
1. Cc1c(Cn2c3ccccc3n3c(=O)cc(N4CCOCC4)nc23)cccc1C(F)(F)F [GSK2306394]
2. Fc1ccc(-c2nc3n(c2-c2ccncc2)CCS3)cc1 [GI98581]

1. 0%
2. 0%

// for each molecule below, give its %Inh
1. Cn1cncc1C(=O)NC1CCN(c2ccnc(Nc3ccc(F)cc3)n2)C1 (stereo not shown) [GSK1379717]
2. COc1nccc(-c2c(-c3ccc(F)cc3)ncn2CCCN2CCOCC2)n1 [SB-282852]
3. COc1ccc(Nc2nccc(NCCNC(=O)Nc3cc(C)ccc3C)n2)cc1 [GSK1379899]
4. FC(F)(F)c1ccccc1-c1cc(-c2c[nH]nc2-c2ccccn2)ccn1 [GW679396]

["0%", "0%", "86%", "0%"]

Kindly give each listed record's %Inh.
1. Cc1ccc(NC(=O)Nc2ccc(Cl)c(C(F)(F)F)c2)cc1-c1ccc(C(=O)Nc2ccncc2)cc1 [GSK1398470]
2. Cc1cccc2c(-c3ccncn3)c(-c3ccc(F)cc3)nn12 [GW515532]
3. Nc1cccc(-c2ccc3c(N)n[nH]c3c2)n1 [GSK2192730]
4. Cn1cnc2c(N)ncnc21 [SKF-97623]

0%
0%
13%
24%

Reported %Inh of CC(=O)c1cccc(NC(=O)NC2CCN(c3ccnc(Nc4ccc(F)cc4)n3)C2)c1 (stereo not shown) [GSK1379710] : 33%
